Provenance of the data: patent US20240391871A1

system: L6-myotubes; assay: Glucose uptake (3H-2-deoxyglucose) in differentiated L6-myotubes; type: cell-based; settings: compound 1×10^−5 M, read-out: Biological example 1: glucose uptake, activity compared to that of isoproterenol
Structures can show the parent of a compound that is named as a salt.
QUANTITY NAME: Emax at 10 µM

Consider the following illustrative entries.
COc1ccc(C[C@@H]2CC[C@H]([C@H](O)c3cncc(F)c3)N2)cc1 [Example 21, dihydrochloride]	> 75%
CO[C@H]1CC[C@H](C[C@H]2CC[C@H]([C@@H](O)c3ccccc3F)N2)CC1 [Example 8, hydrochloride]	50 to 75%
COc1ccc(C[C@@H]2CC[C@H]([C@@H](O)c3cccc(F)c3)N2)cc1 [Example 14, hydrochloride]	> 75%

Dear colleague, could you send me Emax at 10 µM for each of the items below? Thanks.
1. CO[C@H]1CC[C@H](C[C@@H]2CC[C@H]([C@@H](O)c3ccccc3F)N2)CC1 [Example 6, hydrochloride]
2. CC(=O)N(Cc1ccccc1)[C@H]1CC[C@@H](C[C@@H]2CC[C@H]([C@@H](O)c3cccc(F)c3)N2)CC1 [Example 35, hydrochloride]

Output line:
1: 25 to 50%; 2: 25 to 50%
